Consider the following molecules and their measured EC50 readings.
# System: Plasmodium falciparum
# Assay Procedure: NOVARTIS: Inhibition of Plasmodium falciparum 3D7 (drug-susceptible) proliferation in erythrocyte-based infection assay
# Format: functional, organism-based
# Setup Conditions: Plasmodium falciparum, 3D7
Express the result in nM but write the number alone.

Some molecules with recorded EC50:
CC1CC(=Cc2ccncc2)C(=O)C(=Cc2ccncc2)C1 (stereo not given) : 1630
CCN1CCN(C2CCN(Cc3cc4ccc(F)cc4n(CCSc4ccccc4)c3=O)CC2)CC1 : 715
Cc1ccn2c(NC(C)(C)CC(C)(C)C)c(-c3ccccc3OC(=O)c3ccc(C)c([N+](=O)[O-])c3)nc2c1 : 744
COc1cc(CN2CCC3(CC2)CC3C(=O)NCCc2ccccc2OC)ccc1O (stereo not given) : 2350

Asked: Recorded EC50 of O=C(O)c1ccc2c(c1)N=C(c1ccccc1)N(Cc1cccnc1)C2 , please.
Given back: 476

Asked: Using the record for O=C(c1cccs1)N(Cc1cccs1)c1ccc([N+](=O)[O-])cc1 , report its EC50.
Given back: 677

Asked: Fill in: EC50 of CCCCCCN(C(=O)c1ccc(CCCCC)cc1)C(CC)c1nc2ccccc2c(=O)n1-c1ccccc1OC (stereo not given) is ___
Given back: 1030
